Hi there, I'd appreciate the recorded Total Cell Count for every entry that follows.
- Test system: HEK-293T
- assay.text: Multiplex assay against HEK293T
- Type: toxicity, cell-based
- assay.conditions: human, 24 h, 10 µM, compound concentration 10 uM, replicate 1
Give a plain numeric answer without units written out.

Q: What does the data say about its Total Cell Count? Entry: O=C(NCC(=O)N1CC[C@H](N[C@H]2CC[C@@](O)(c3ccc(-c4ncccn4)cn3)CC2)C1)c1cccc(C(F)(F)F)c1 [PF-4136309]
Result: 450

Q: For CC[C@H]1OC(=O)[C@H](C)[C@@H](O[C@H]2C[C@@](C)(OC)[C@@H](O)[C@H](C)O2)[C@H](C)[C@@H](O[C@@H]2O[C@H](C)C[C@H](N(C)C)[C@H]2O)[C@@]2(C)CC(C)=C(O2)[C@H](C)[C@@H](O)[C@]1(C)O , what is its reported Total Cell Count?
Result: 499

Q: Return reported Total Cell Count; argument: Cc1nc2ccc(Oc3ccc(F)cc3)cc2c(=O)n1C[C@H]1CCCN(C(C)C)C1.Cl
Result: 525

Q: What value of measured Total Cell Count is listed for CCOc1c2c(c(OCC)c3ncccc13)CN(c1ccc(CS(=O)(=O)NC(=O)Cc3ccccc3OC)cc1C)C2=O ?
Result: 446

Q: So what does the record say about Total Cell Count for COc1cc(C(=O)N(CCCc2ccccc2)Cc2ccc(CC(=O)O)cc2)cc(OC)c1C ?
Result: 549

Q: Tell me the measured Total Cell Count of COc1ccccc1N1CCN(CCCCNC(=O)c2ccc3ccccc3c2)CC1.Cl , please.
Result: 393

Q: Could you tell me which Total Cell Count is on file for O=C1COc2nccc(-c3ccccc3F)c2CN1Cc1cc(C(F)(F)F)cc(C(F)(F)F)c1 ?
Result: 520

----------
- Tested on: HEK-293T
- assay.text: Multiplex assay against HEK293T
- Type: toxicity, cell-based
- assay.conditions: human, 48 h, 1 µM, compound concentration 1 uM, replicate 1
observable: Population Apoptotic (%)
Write down the numeric answer in % and omit the unit.

Q: // fetch HEK-293T Population Apoptotic (%) for O=S(=O)(c1ccccc1)c1cnc2c(N3CCNCC3)cccc2c1 [INTEPIRDINE]
Result: 17

Q: Look up Population Apoptotic (%) with HEK-293T for this molecule: COc1cc(NC(=O)CCN2CCC(OC(=O)Nc3ccccc3-c3ccccc3)CC2)c(Cl)cc1CNC[C@H](O)c1ccc(O)c2[nH]c(=O)ccc12
Result: 35

Q: Notebook entry, HEK-293T assay: Population Apoptotic (%) of COc1ccccc1N1CCN(CCCCNC(=O)c2ccc3ccccc3c2)CC1.Cl = ?
Result: 20

Q: Give Population Apoptotic (%) (HEK-293T) of the following molecule: N#Cc1c(N)nc(SCc2csc(-c3ccc(Cl)cc3)n2)c(C#N)c1-c1ccc(OCCO)cc1
Result: 31

Q: Tell me reported Population Apoptotic (%) for Cc1ccc(-c2ccc(F)cc2COc2ccc(CCC(=O)O)cc2)cc1 , tested with HEK-293T.
Result: 17

Q: Record lookup: for HEK-293T, what Population Apoptotic (%) belongs to CC(C)(C)c1ccc(S(=O)(=O)Nc2ccc(Cl)cc2C(=O)c2cc[n+]([O-])cc2)cc1 ?
Result: 28

Q: GET /values?readout=Population Apoptotic (%)&system=HEK-293T&item= O=C(O)Cc1ccccc1Nc1c(Cl)cccc1Cl
Result: 23

Q: Find the measured Population Apoptotic (%): item CN1CCN2c3ncccc3Cc3ccccc3C2C1 (centres undefined) , target or system HEK-293T.
Result: 23

Q: Checklist item: Population Apoptotic (%) tested on HEK-293T, entry Cc1ccc(/C(=C\CN2CCCC2)c2ccccn2)cc1 , value?
Result: 16
